Test: Protein binding in dog plasma at 1 ug/ml after 4 hrs by rapid equilibrium dialysis and LC-MS/MS analysis
Format: ADME, cell-free, Canis lupus familiaris
Conditions: at 1 µg/mL, read-out: PPB (converted)

MOLECULE: Cc1cc(C)n(-c2cccc([C@H](CC(=O)O)CN3CC[C@@H](CCc4ccc5c(n4)NCCC5)C3)c2)n1 [GSK-3008348 FREE BASE]
fraction unbound at 4 h, 1 ug/ml: 0.4

###

Experiment: Clearance in Beagle dog blood at 1 mg/kg, iv dosed via 60 mins infusion followed by 6 days washout and re-dosed via oral gavage at 1 mg/kg
Type: ADME, organism-based, Canis lupus familiaris
Conditions: whole blood

COMPOUND: Cc1cc(C)n(-c2cccc([C@H](CC(=O)O)CN3CC[C@@H](CCc4ccc5c(n4)NCCC5)C3)c2)n1 [GSK-3008348 FREE BASE]
clearance: 25 to 33 mL/min/kg
